# Protocol Description: Confirmation screen for delayed death inhibitors of the malarial parasite plastid, 48 hour incubation; note: nearly all actives have a fitted effect of over 65% in size
# Condition Description: P. falciparum-infected erythrocytes, luciferase growth; series mostly up to 28.7 µM
About 1,200 (52%) of roughly 2,300 compounds were called active. Inconclusive results (about 34%) are left out. Calls come from the whole dose curve; as a rule, active = well fitted inhibition curve with a large enough effect; inconclusive = small, poorly fitted or top-dose-only effect, or effect the other way; inactive = no such curve, though single readings can be large or run the other way. The set was probably picked from earlier hits. The list shows a part of the results.
Outcomes: active, inactive

{"columns": ["Compound", "Class Label"],
 "data": [
  ["CCCCNC(=O)c1onc(CSc2cc(C)ccc2C)c1C(=O)O", "inactive"],
  ["Cc1c(CN2CCC(CO)(CCOc3ccccc3)CC2)[nH]c2ccc(Cl)cc12", "active"],
  ["Cc1c(OC(C)C(=O)N2C[C@H]3C[C@@H](C2)c2cccc(=O)n2C3)ccc2c3c(c(=O)oc12)CCC3 (stereo not given in full)", "active"],
  ["CCOc1ccc(C2C3=C(Nc4nc(N)[nH]c(=O)c42)c2ccccc2C3=O)cc1 (stereo not given)", "active"],
  ["COc1ccc(C2c3c(ncn(CCN4CCOCC4)c3=N)Oc3ccc4ccccc4c32)cc1OC (stereo not given)", "active"],
  ["OCC1(CCOc2ccccc2)CCN(Cc2nc3ccc(F)cc3[nH]2)CC1", "active"],
  ["Cc1cccc[n+]1CC(=O)c1ccc(NC(=O)c2ccccc2)cc1", "active"],
  ["Cn1nnnc1Sc1ncnc2scc(-c3cccs3)c12", "active"],
  ["Cc1cc(C(C)(C)C)cc(C)c1CCNC(=O)c1c(C)noc1C", "active"],
  ["Cc1cccc(C)c1NC(=O)CCCSc1nnc(-c2ccc(F)cc2)n1-c1ccccc1", "active"]
]}

====

# Protocol Description: Confirmation screen for delayed death inhibitors of the malarial parasite plastid, 48 hour incubation; note: nearly all actives have a fitted effect of over 65% in size
# Condition Description: P. falciparum-infected erythrocytes, luciferase growth; series mostly up to 28.7 µM
About 1,200 (52%) of roughly 2,300 compounds were called active. Another 34% or so got no clear call; they are omitted. The call rests on the fitted dose curve; in most records, active means well fitted inhibition curve with a large enough effect; inconclusive means small, poorly fitted or top-dose-only effect, or effect the other way; inactive means no such curve, though single readings can be large or run the other way. So high a share suggests a set chosen from earlier hits. Some of the results follow.
Labels: label 1 for active, label 0 for inactive

{"columns": ["Molecule", "Class Label"],
 "data": [
  ["COc1cc(NC(=O)C2CCN(S(=O)(=O)c3ccc(N4CCCC4=O)cc3)CC2)cc(OC)c1", "label 1"],
  ["CSc1ccccc1NC(=O)CN1CCN(S(=O)(=O)c2ccccc2[N+](=O)[O-])CC1", "label 1"],
  ["C=CCN(CC=C)C(=O)C1CCN(S(=O)(=O)c2ccc(N3CCCC3=O)cc2)CC1", "label 1"],
  ["Cc1ccc(CNS(=O)(=O)c2ccc(C)s2)cc1", "label 0"],
  ["COc1cccc(NC(=O)C2CCN(S(=O)(=O)c3ccc4[nH]c(=O)oc4c3)CC2)c1", "label 0"],
  ["Nc1nc(N)nc(-c2cc([N+](=O)[O-])ccc2O)n1", "label 0"],
  ["COc1ccc(S(=O)(=O)N2CCC(C(=O)Nc3ccccc3N3CCCCC3)CC2)cc1OC", "label 1"],
  ["O=C1C(=O)c2ccccc2C(O)=C1c1cccc([N+](=O)[O-])c1", "label 1"],
  ["Cc1ccc2cc(C)c(SCC(=O)NCc3ccco3)nc2c1", "label 0"],
  ["COc1ccc(Cl)cc1NC(=O)C1Cc2cc(S(=O)(=O)N3CCCC3)ccc2N1C(C)=O (stereo not given)", "label 1"]
]}
